# assayed system: beta-catenin/TCF4 engagement (Homo sapiens, UniProt P35222)
# Construct: expressed in transfected cells; host or cells: HEK293
# Sequence (P35222 whole entry): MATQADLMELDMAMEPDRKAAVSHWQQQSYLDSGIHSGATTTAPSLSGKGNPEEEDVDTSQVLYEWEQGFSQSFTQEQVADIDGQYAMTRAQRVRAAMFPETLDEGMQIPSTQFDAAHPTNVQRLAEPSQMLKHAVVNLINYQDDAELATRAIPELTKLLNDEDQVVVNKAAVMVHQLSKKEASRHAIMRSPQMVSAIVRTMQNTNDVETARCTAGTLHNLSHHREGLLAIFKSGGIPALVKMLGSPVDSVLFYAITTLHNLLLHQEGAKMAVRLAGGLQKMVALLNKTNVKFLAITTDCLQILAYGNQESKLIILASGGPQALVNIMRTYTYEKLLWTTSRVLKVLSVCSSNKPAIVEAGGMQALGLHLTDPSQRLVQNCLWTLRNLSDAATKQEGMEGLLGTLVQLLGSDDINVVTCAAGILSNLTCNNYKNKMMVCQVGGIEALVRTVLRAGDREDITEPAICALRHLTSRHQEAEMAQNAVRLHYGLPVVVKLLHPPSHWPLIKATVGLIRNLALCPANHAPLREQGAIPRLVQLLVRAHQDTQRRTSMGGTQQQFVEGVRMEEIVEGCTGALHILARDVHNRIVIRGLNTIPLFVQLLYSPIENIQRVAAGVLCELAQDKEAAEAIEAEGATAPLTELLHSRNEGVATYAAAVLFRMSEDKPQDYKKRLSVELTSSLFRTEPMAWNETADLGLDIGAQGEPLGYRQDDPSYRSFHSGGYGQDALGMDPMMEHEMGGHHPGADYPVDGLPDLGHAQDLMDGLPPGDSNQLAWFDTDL
# assay summary: Nano-BRET target engagement assay (B-cat-Halo & TCF4-Luc in HEK293 cells)
# Type: cell-based
# condition label: absolute IC50; read-out: NanoBRET Abs IC50
reported metric: IC50

Known results for compounds:
1. CC(=O)N1CCC[C@]12CC=CCCCC1(CCCC=CCCCOC(=O)N3CC[C@@](C(=O)N[C@@H](Cc4ccsc4)C(=O)N[C@@H](Cc4csc5ccccc45)C(=O)N[C@@H](CCC(N)=O)C(N)=O)(C3)NC(=O)[C@H](CC(C)C)NC(=O)[C@H](Cc3ccccc3)NC(=O)[C@H](C)NC(=O)[C@H](C)NC(=O)[C@H](CN(CC(=O)O)C(=O)C3CCN(C)CC3)NC(=O)[C@H](CC(=O)O)NC1=O)NC(=O)[C@H](CC(C)(C)C)NC(=O)[C@H](CC(=O)O)NC2=O (stereo partly drawn) :: > 20 µM
2. CC(=O)N1CCC[C@]12CC=CCCCC1(CCCC=CCCCOC(=O)N3CC[C@@](C(=O)N[C@@H](Cc4ccsc4)C(=O)N[C@@H](Cc4csc5ccccc45)C(=O)N[C@@H](CCC(N)=O)C(N)=O)(C3)NC(=O)[C@H](CC(N)=O)NC(=O)[C@H](Cc3ccccc3)NC(=O)[C@H](C)NC(=O)[C@H](C)NC(=O)[C@H](CNCC(=O)O)NC(=O)[C@H](CC(=O)O)NC1=O)NC(=O)[C@H](CC(C)(C)C)NC(=O)[C@H](CC(=O)O)NC2=O (stereo partly drawn) [I-1733] :: > 20 µM

Summary for this compound, C[C@@H]1NC(=O)[C@H](C)NC(=O)[C@H](CC(=O)O)NC(=O)[C@H](CC(=O)O)NC(=O)C2(CCCC=CCCCOC(=O)N3CC[C@@](C(=O)N[C@@H](Cc4ccccc4Cl)C(=O)N[C@@H](Cc4csc5ccccc45)C(=O)N[C@@H](C(N)=O)[C@H](C)O)(C3)NC(=O)[C@H](CC(N)=O)NC(=O)[C@H](Cc3ccccc3)NC1=O)CCCC=CC[C@]1(CCCN1S(C)(=O)=O)C(=O)N[C@@H](CC(=O)O)C(=O)N[C@@H](CC(C)(C)C)C(=O)N2 (stereo partly drawn) : IC50 is > 20 µM
